# Compound, melting point
records = [
    ("CC(=O)NC(C)c1cc(S(N)(=O)=O)sc1S(C)(=O)=O (stereo not given)", "114 to 117 °C"),
    ("COc1nc(C)c(C)cc1NC(=O)N1CCN(C(c2ccccc2)c2ccccc2)CC1", "132 to 134 °C"),
    ("COc1ccc(S(=O)(=O)Nc2ccc(Cl)nc2Nc2ccccc2)cc1", "206 to 208 °C"),
    ("CNCCc1cccc(N2C(=O)N(c3c(Cl)cccc3Cl)Cc3cnc(Nc4ccccc4)nc32)c1", "122 to 125 °C"),
    ("CCCCC(NC(=O)C1CC1(C)C)C(=O)OC(C)(C)C (racemic)", "52 to 65 °C"),
    ("CSc1nc(=O)cc(N)n1-c1ccc(Cl)cc1", "180 to 182 °C"),
    ("COC(=O)CCCCCCNC(=O)C(CO)NS(=O)(=O)c1ccc(Cl)cc1 (racemic)", "78 to 81 °C"),
    ("CNC(=C[N+](=O)[O-])NCCc1nnc(NCCCOc2cccc(CN3CCCCC3)c2)n1C", "110 to 112 °C"),
    ("Cc1ccccc1CCOS(N)(=O)=O", "50 to 52 °C"),
    ("O=C(CCNC(=O)C(=Cc1ccccc1)CSC(=O)c1ccccc1)OCc1ccccc1", "60 °C"),
]

----------
# Compound, melting point
measured = [
    ("COc1ccc(SC(C(=O)NO)C(C)C)cc1 (stereo unspecified)", "119 °C"),
    ("CN(C)C(=O)CCC(=O)NC1CCC(CCN2CCN(c3nccc4c3CCO4)CC2)CC1 (stereo unspecified)", "188 °C"),
    ("Cc1cccc(C)c1N1CCN(CCNc2cnn(C)c(=O)c2Cl)CC1", "235 to 242 °C"),
    ("COc1cccc(NC(=O)c2ccccc2[N+](=O)[O-])c1", "156 to 158 °C"),
    ("COc1cc2ncnc(N3CCN(C(=S)NCc4ccc(OC(F)(F)F)cc4)CC3)c2cc1OC", "131 to 132 °C"),
    ("C=Cc1ccc(C#N)cn1", "29 to 30 °C"),
]

----------
Quantity Kind: melting point

# Compound, Experimental Result
data = [
    ("CC1(C)CCC2(Cc3ccc(Cl)cc3)OC12CO (stereo unspecified)", "36 to 38 °C"),
    ("CCOC(=O)CC1(c2ccc(Cl)c(Cl)c2)CNC(=O)C1 (stereo unspecified)", "87 to 90 °C"),
    ("CCCN(CCC)c1c(CC)nn2c(-c3ccc(N(C)C)cc3C(F)(F)F)cccc12", "69.1 to 79.8 °C"),
    ("NC(=O)c1cnn2cccc2c1Nc1ccccc1", "247 °C"),
    ("CC(c1ccccc1)c1cc2c(=O)[nH]c(N)nc2s1 (stereo unspecified)", "260 to 270 °C"),
    ("CN1CCCN(C2=Nc3cc(Cl)ccc3Nc3ccccc32)CC1", "143 to 145 °C"),
    ("COc1ccc(-c2cc3nccnc3[nH]2)cc1OCC(=O)O", "330 to 332 °C"),
    ("O=C1CCC(c2ccc(-n3cnc4c3CCCC4)cc2)=NN1", "296 to 297 °C"),
    ("CCC1=NN=C(c2ccc(OC)c(OC)c2)c2cc(OC)c(OC)cc2C1CC (stereo unspecified)", "142 to 144 °C"),
    ("CC(=O)C1(CCC(=O)OC(C)(C)C)CCCCC1=O (stereo unspecified)", "47 to 53 °C"),
    ("O=C(NC1CCCCC1)c1ccc(CO)cc1", "185 °C"),
]

----------
melting point overview

# Molecule, melting point
records = [
    ("CC(Cc1ccc(OCCCCCCCCCCCO)cc1)NCC(O)c1cccc(C(F)(F)F)c1 (centres undefined)", "45 to 50 °C"),
    ("COc1cc2ncnc(Nc3ccc(F)c(Cl)c3)c2cc1OCCC1OCCO1", "167 to 168 °C"),
    ("COC(=O)c1cc(-c2c(OC)cccc2OC)n(-c2ccc(NS(=O)(=O)c3ccc(C)cc3)cc2C2CCCC2)n1", "200 to 230 °C"),
    ("FC(F)(F)Sc1c(Cl)c(Cl)c(CBr)c(Cl)c1Cl", "117 to 118 °C"),
    ("CCCC[C@H](NC(=O)[C@H](CCC(=O)OC(C)(C)C)NC(=O)OCc1ccccc1)C(=O)CSCc1ccco1", "78 to 79 °C"),
    ("ClCCN1c2cc3c(cc2C(c2cccs2)=NCC1CCl)OCCO3 (centres undefined)", "184 to 187 °C"),
    ("Nc1cc(Oc2ccc3c(C(=O)O)cccc3c2)ncn1", "288 to 290 °C"),
    ("CN(C)C(=O)c1c(C(=O)NN=Cc2ccc3ccccc3c2)[nH]c2ccccc12", "256 to 260 °C"),
    ("CCCN1C(=O)C2(CC)CC(c3ccc([N+](=O)[O-])cc3)(C2)C1=O", "121 to 122 °C"),
]

----------
# melting point values compiled below

# Compound, melting point
data = [
    ("C=C1N(C)C(=O)OC12CCN(C(=O)NCCCC)CC2", "129 to 130 °C"),
    ("Cc1ccc([C@@H](Sc2cc(C)ccc2N)[C@H](O)C(N)=O)cc1", "145 to 146 °C"),
    ("COc1cc2c(c(Cl)c1Cl)CCC2", "78 to 82 °C"),
    ("C#Cc1cn(C)c2cc(-c3ccccc3Cl)c3c(c12)C(=O)NC3=O", "125 to 129 °C"),
    ("CCCn1c(=O)c2[nH]c(C(CC)Cc3ccccc3)nc2n(CCC)c1=O (stereo not drawn)", "180 °C"),
    ("COc1cncc(OC)c1CCCOc1cccnc1Cc1cccc(Br)c1", "153 to 165 °C"),
    ("CCOC(=O)Oc1cc2occ(C=O)c(=O)c2cc1OC(=O)OCC", "101 to 102 °C"),
    ("CN(C)C(=O)C1(N2CCCC2)CCNCC1", "150 °C"),
    ("O=c1[nH]c2cc(Cl)c(S(=O)CCN3CCC(Cc4ccc(F)cc4)CC3)cc2o1 (stereo not drawn)", "199 to 200 °C"),
    ("CCOC(=O)c1cnc2cc(Cl)ccc2c1Cl", "81 to 82 °C"),
    ("CCCNC(=O)C(O)C1c2ccccc2C(=O)N1c1ccc2ccc(C)nc2n1 (stereo not drawn)", "128 to 130 °C"),
    ("CCC(C)(C)c1c(OCc2ncnn2C)nn2c(-c3c(F)ccc(F)c3F)nncc12", "122 to 125 °C"),
    ("OC1(c2ccc(Cl)nc2)CCCC1", "92 to 93 °C"),
    ("O=C(O)c1cc2cc(Cl)ccc2nc1NC(Cc1c[nH]c2cc(F)ccc12)C(=O)O (stereo not drawn)", "170 to 174 °C"),
    ("Cc1nc(N)c2nc(CO)n(NC3CCCCC3)c2c1C", "> 250 °C"),
    ("Cc1ccc(S(=O)(=O)OCC2CCc3sc(C)nc3C2)cc1 (stereo not drawn)", "105 to 106 °C"),
    ("CC(C)(C#N)CCCCOc1cc(-c2ccccc2)cc(-c2ccccc2)n1", "71 °C"),
    ("CCOc1cc2c3c(cccc3c1)C(=O)N(O)C2=O", "224 to 227 °C"),
    ("CSC(=NC(=O)N(C)C)NC(=O)N(C)C", "116 to 118 °C"),
    ("Cc1ccccc1-n1c(-c2sc(Nc3ccc(Cl)cc3)nc2-c2ccccc2)nc2ccccc2c1=O", "> 275 °C"),
    ("Nc1nc(Nc2cccnc2)sc1C(=O)c1ccc(OC(F)F)cc1", "143 °C"),
    ("Cc1cc(C#N)c(=O)[nH]c1C", "258 to 263 °C"),
    ("N#Cc1ccc2c(c1)[nH]c(=S)n2NC(=O)c1ccc(Cl)c(S(N)(=O)=O)c1", "315 °C"),
    ("Cn1nc(-c2ccccc2)c(N2CCOCC2)c(C=NO)c1=O", "182 to 183 °C"),
    ("CC(C)Oc1nc(N)nc2[nH]cnc12", "204 to 206 °C"),
    ("CCCCCCCCCCCCCCCCCCOC(=O)c1ccc(Cn2c(=S)sc3ccccc32)cc1", "105 to 107 °C"),
    ("CN1CCC(NCc2ccccc2)(c2ccccc2)C(O)C1 (stereo not drawn)", "162 to 164 °C"),
    ("O=C(Cc1ccccc1)Nc1ccc2ccc(Cl)nc2n1", "187 °C"),
    ("CN(C)c1ncnc2c1ncn2C1CC(F)C(CO)O1 (stereo not drawn)", "105 to 107 °C"),
    ("CC(C)c1nn2ccccc2c1C(O)C(C)C (stereo not drawn)", "69 °C"),
    ("CNC(=O)NC(=O)N(C)c1ccccc1", "123 to 125 °C"),
    ("CC(C)(C)OC(=O)Nc1c(F)cccc1OCc1ccccc1", "103 to 106 °C"),
    ("CNC(=N[N+](=O)[O-])N(C)Cc1ccc(Cl)nc1", "136 to 137 °C"),
    ("C=CCOc1ccc(C2=NNC(=O)CC2)cc1", "130 to 132 °C"),
    ("CC(=O)Nc1nc(N(C(C)=O)C(C)=O)c(CC=O)c(=O)[nH]1", "169 to 170 °C"),
    ("Cc1c(F)c(N2CCNCC2)c(F)c2c1c(=O)c(C(=O)O)cn2C1CC1", "205 to 206 °C"),
    ("O=C1CC2CCc3cc(O)ccc3C2=NN1c1ccccn1 (stereo not drawn)", "193 to 194 °C"),
    ("CCN1C(=O)C(C)(C)C(=O)N(C)c2cc(CCCN(CCn3ccc4occc4c3=O)Cc3cccnc3C)ccc21", "151 to 155 °C"),
    ("C[C@H](N[C@@H](CCc1ccccc1)C(=O)O)C(=O)N1C(=O)N(C)C[C@H]1C(=O)O", "240 °C"),
    ("Cc1sc2c(Sc3ccccc3)c3ccccc3c(-c3cc(Br)c(O[C@H](C)C(=O)O)c(Br)c3)c2c1C", "237 to 239 °C"),
    ("CC=CCNc1cc(C(=O)O)cc(S(N)(=O)=O)c1Sc1ccc(NC(C)=O)cc1", "148 °C"),
    ("O=c1cc(-c2cccc(Cl)c2)c2cc(Br)ccc2[nH]1", "105 °C"),
    ("CCCCCCCCCCCCCCCCCCC(COC(C)=O)(COC(C)=O)NC(C)=O", "90 to 91 °C"),
]
